B1: MFF (parent)
chain: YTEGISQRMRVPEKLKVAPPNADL

- Variants of: B1
- Assay Overview: protein stability index of a GFP-peptide fusion (GPS, HEK-293T) (PSI 1-6); higher = more stable;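 note: lentivirally expressed fusions sorted by FACS into six bins by GFP to DsRed ratio, PSI derived from sequencing read proportions per bin multiplied by bin number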
- Experimental Context: c terminus: a fixed tail appended
Readout Label: protein stability index
I'd appreciate a reply containing only the number, no unit.

| Residue Change | Assay Result |
| --- | --- |
| I5E | 4.78 |

Note protein stability index for the variant shown: Y1G
4.57

Note protein stability index for the variant shown: Y1H
4.52
